The origin of these recorded values is ChEMBL document CHEMBL1132302.

test: Area under curve was determined using 20%aqueous hydroxypropyl-beta-cyclodextrin (HPbetaCD) as vehicle. Compound was administered intravenously to nude mice at a dose of 25 mg/kg; assay type: ADME, organism-based; design: dose 25 mg/kg, route intravenous; details: mouse, in vivo, iv
Task for the reader: assign each of the following molecules its reported AUC.
Give bare numbers, in ng·h/mL.

Reference set (3 entries):
| compound.structure.string | recorded.number |
| --- | --- |
| NC(=O)C(=O)N1CCC(CC(=O)N2CCC([C@H]3c4ncc(Br)cc4CCc4cc(Cl)cc(Br)c43)CC2)CC1 | 27100 |
| O=C(CC1CCN(C(=O)c2cc[n+]([O-])cc2)CC1)N1CCC([C@H]2c3ncc(Br)cc3CCc3cc(Cl)cc(Br)c32)CC1 | 13700 |
| O=C(CC1CCN(C(=O)c2ccc[n+]([O-])c2)CC1)N1CCC([C@H]2c3ncc(Br)cc3CCc3cc(Cl)cc(Br)c32)CC1 | 62000 |

Look up and report measured AUC for this entry: `CN(C)C(=O)C(=O)N1CCC(CC(=O)N2CCC([C@H]3c4ncc(Br)cc4CCc4cc(Cl)cc(Br)c43)CC2)CC1` 7530

###

test: Area under curve was determined using 20%aqueous hydroxypropyl-beta-cyclodextrin (HPbetaCD) as vehicle. Compound was administered orally to nude mice at a dose of 25 mg/kg (run time 7 hr); assay type: ADME, organism-based; set-up: dose 25 mg/kg, route oral; conditions: mouse, in vivo, po
observed.property: AUC at 7 h (ng·h/mL)
Numbers only, in ng·h/mL.

Return AUC at 7 h for the following compound: `O=C(CC1CCN(C(=O)Cn2cncn2)CC1)N1CCC([C@H]2c3ncc(Br)cc3CCc3cc(Cl)cc(Br)c32)CC1` 1970

###

Kindly state IC50 for each of the entries shown.
biological target: Protein farnesyltransferase (Homo sapiens, UniProt P49354+P49356); experiment: Inhibition of [3H]FPP incorporation into His6-H-Ras-CVLS by farnesyl transferase; type: protein-complex assay
Numbers only, in nM.

// input: 4 compounds below; output: IC50 for each
1. NC(=O)CN1CCC(CC(=O)N2CCC([C@H]3c4ncc(Br)cc4CCc4cc(Cl)cc(Br)c43)CC2)CC1
2. NC(=O)CNC(=O)N1CCC(CC(=O)N2CCC([C@H]3c4ncc(Br)cc4CCc4cc(Cl)cc(Br)c43)CC2)CC1
3. CN(C)S(=O)(=O)N1CCC(CC(=O)N2CCC([C@H]3c4ncc(Br)cc4CCc4cc(Cl)cc(Br)c43)CC2)CC1
4. O=C(CC1CCN(CC(=O)N2CCOCC2)CC1)N1CCC([C@H]2c3ncc(Br)cc3CCc3cc(Cl)cc(Br)c32)CC1

1: 2.1; 2: 0.9; 3: 7.8; 4: 5.3

###

experiment: Area under curve was determined using 20%aqueous hydroxypropyl-beta-cyclodextrin (HPbetaCD) as vehicle. Compound was administered orally to nude mice at a dose of 25 mg/kg (Run time = 7 hr); type: ADME, organism-based; parameters: dose 25 mg/kg, route oral; settings: mouse, in vivo, po
observed.property: AUC at 7 h
Units required after the number.

Read off the recorded AUC at 7 h for `CN(C)C(=O)C(=O)N1CCC(CC(=O)N2CCC([C@H]3c4ncc(Br)cc4CCc4cc(Cl)cc(Br)c43)CC2)CC1` 2260 ng·h/mL
